Test system: HL-1
Assay: cardiomyocyte survival under oxidative or metabolic stress – cell-based, panel, H9c2 and HL-1, H2O2, 2-deoxyglucose, ATP luminescence, SAR follow-up (AID 651642)
Conditions: H9c2/HL-1 cardiomyocyte 2-deoxyglucose damage, run 3, with 2-deoxyglucose
Consider the following molecules and their measured pIC50 readings.
A value of pIC50 is the negative decimal logarithm of a concentration given in moles per litre.

COc1ccc2c(c1OC)C(=O)N1c3ccccc3C(=O)N(Cc3ccccc3Br)C21 (stereo not given) = 4.86
COc1ccc2c(c1OC)C(=O)N1c3ccccc3C(=O)N(Cc3ccccc3C)C21 (stereo not given) = 5.42

Now take the following molecule into account.
(Q) Quick one: pIC50 of `COc1cc(-c2cc(C(=O)Nc3cccc(C(C)=O)c3)c3ccccc3n2)cc(OC)c1OC` ?
(A) 5.06
